# System: CLZ3 (HCA2 human fibroblast dual HR-NHEJ reporter);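 also: compound given one day before doxycycline, which switches on I-SceI endonuclease expression to create double-strand breaks within the integrated reporter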
# Assay Summary: HR repair efficiency (tdTomato+ cells) relative to control (log10 fold); higher = more homologous recombination
# Condition Info: 5 µM; doxycycline 0.5 ug/mL
Please respond with reported HR repair efficiency (log10) for every item in the list.
Please respond with just the number, no unit label.

Can you share its HR repair efficiency (log10)? I mean this molecule: C=C[C@H]1[C@H](O[C@@H]2O[C@H](CO)[C@@H](O)[C@H](O)[C@H]2O)OC=C(C(=O)OC)[C@H]1CCOC(=O)c1cc(O)c(O)c(O)c1 [Cornuside]
0.162

Could you share which HR repair efficiency (log10) value was measured for `C=CCc1ccc(O)c(OC)c1` ?
-0.0172

Need HR repair efficiency (log10) of COc1c(O)cc2oc(-c3ccccc3)cc(=O)c2c1O [Oroxylin-A] , thanks.
0.0535

Report HR repair efficiency (log10) for `O=c1c(O[C@@H]2O[C@H](CO)[C@@H](O)[C@H](O)[C@H]2O)c(-c2ccc(O)c(O)c2)oc2cc(O)cc(O)c12` please.
0.0777

Consider the molecule shown here: COC(=O)C1=CO[C@@H](O[C@@H]2O[C@H](CO)[C@@H](O)[C@H](O)[C@H]2O)[C@@H]2[C@@]3(C)O[C@H]3[C@@H](O)[C@]12O [Sesamoside] What is its recorded HR repair efficiency (log10)?
-0.1

Would you mind telling me what HR repair efficiency (log10) value was observed for `C=CC(C)(C)c1cc(/C=C/C(=O)c2ccc(O)cc2)c(OC)cc1O` ?
0.0473

What does the data say about its HR repair efficiency (log10)? Entry: COc1c(O)cc2c(c1O)C(=O)c1c(cc(C)c(O)c1OC)C2=O [Aurantio-obtusin]
0.0361
